These measurements were taken from paper PMC10269165.

- System: TcPMT-complemented pem1Δ/pem2Δ S. cerevisiae
- experiment.description: Growth inhibition of complemented yeast
- Type: cell-based, Saccharomyces cerevisiae
- study.conditions: Saccharomyces cerevisiae, 72 h, read-out: Mean growth inhibition EC50 ± SEM on complemented yeast, TcPMT
- Procedure: To determine the effect of PMT inhibitors on the growth of PMT- and LacZ-complemented pem1Δpem2Δ S. cerevisiae, the yeast cells were first starved of choline as described above, and the cells were diluted to an OD600 of ~0.6. […] On a daily basis during the course of culture, 200-μL portions of culture aliquots were taken, and their OD600s were measured using a microplate reader. […]
Parameter: EC50. Scope: all listed entries.
Record the value in µM, omitting the unit from your answer.

molecule	EC50 (µM)
O=c1c(O)cccc2cc(O)c(O)c(O)c12	22.9

**Q:** Name the recorded EC50 for CO[C@@]12[C@H](COC(N)=O)C3=C(C(=O)C(C)=C(N)C3=O)N1C[C@H]1[C@@H]2N1C (some centres unmarked) .
**A:** 45.1
